- TESTED_TARGET: FSHR (Homo sapiens)
- Construct: expressed in transfected cells; host or cells: CHO (Cho-FSHR-LUC-1-1-43)
- Sequence (P23945 18-695): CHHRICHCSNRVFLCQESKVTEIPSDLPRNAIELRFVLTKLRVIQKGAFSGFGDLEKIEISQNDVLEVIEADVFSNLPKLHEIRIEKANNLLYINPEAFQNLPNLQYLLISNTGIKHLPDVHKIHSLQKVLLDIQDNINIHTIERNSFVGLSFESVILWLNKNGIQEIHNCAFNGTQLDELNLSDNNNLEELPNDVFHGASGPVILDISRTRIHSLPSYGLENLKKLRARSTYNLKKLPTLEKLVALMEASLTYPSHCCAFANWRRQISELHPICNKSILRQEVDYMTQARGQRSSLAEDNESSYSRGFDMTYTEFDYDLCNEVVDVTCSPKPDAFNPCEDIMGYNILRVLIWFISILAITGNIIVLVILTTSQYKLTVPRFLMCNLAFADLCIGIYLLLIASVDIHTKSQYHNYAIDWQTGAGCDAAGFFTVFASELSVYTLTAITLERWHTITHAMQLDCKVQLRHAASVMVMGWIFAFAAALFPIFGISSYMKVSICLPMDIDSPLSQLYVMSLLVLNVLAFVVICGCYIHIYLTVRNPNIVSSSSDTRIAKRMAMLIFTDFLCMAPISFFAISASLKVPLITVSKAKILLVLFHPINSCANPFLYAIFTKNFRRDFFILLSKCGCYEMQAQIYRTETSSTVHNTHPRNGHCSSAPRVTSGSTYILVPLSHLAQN
- PROTOCOL: EC50 of cyclic AMP production in CHO FSHR cells + EC20 FSH (Assay A)
- Assay type: cell-based
- EXPERIMENTAL_CONDITIONS: CHO FSHR cells + EC20 FSH, cAMP HTRF; read-out: Assay A: EC50 of cyclic AMP production
pEC50: −log10 of the molar value.
pEC50 reference

Past entries and their recorded results:
>  <MOLECULE>
COc1cc2c(cc1-c1ccn(C)n1)-c1c(c(C(=O)N3CCN(C(=O)OC(C)(C)C)CC3(C)C)nn1-c1ccsc1)CO2

>  <PROPERTY_LABEL>
pEC50

>  <RESULT>
6.00 to 7.00

$$$$
>  <MOLECULE>
COc1cc2c(cc1-c1ccn(C)c1)-c1c(c(C(=O)N3CCNCC3(C)C)nn1-c1ccsc1)CO2

>  <PROPERTY_LABEL>
pEC50

>  <RESULT>
> 7.00

$$$$

For the next question, use this molecule.
In: Using the record for [2H]C([2H])([2H])OC1CC(N(C(=O)c2nn(-c3ccsc3)c3c2COc2cc(OC)c(-c4ccn(C)c4)cc2-3)C([2H])([2H])[2H])C1 (stereo not drawn) , state its measured pEC50.
Out: < 5.30

====

- TESTED_TARGET: FSHR (Homo sapiens, UniProt P23945)
- Construct: expressed in transfected cells; host or cells: CHO (Cho-FSHR-LUC-1-1-43)
- PROTOCOL: EC50 of cyclic AMP production in CHO FSHR cells + EC20 FSH (Assay A)
- Type: cell-based
- EXPERIMENTAL_CONDITIONS: CHO FSHR cells + EC20 FSH, cAMP HTRF; read-out: Assay A: EC50 of cyclic AMP production
EC50 reference

Past entries and their recorded results:
>  <COMPOUND>
COc1cc2c(cc1-c1cnn(CCC#N)c1)-c1c(c(C(=O)N3CCOCC3(C)C)nn1-c1ccsc1)CO2

>  <EC50>
< 100 nM

$$$$
>  <COMPOUND>
[2H]C([2H])([2H])OCC1(C)CCCN1C(=O)c1nn(-c2ccsc2)c2c1COc1cc(OC)c(-c3ccn(C)n3)cc1-2 (stereo not shown)

>  <EC50>
< 100 nM

$$$$
>  <COMPOUND>
COc1cc2c(cc1C=C(C)C)-c1c(c(C(=O)N3CCOCC3(C)C)nn1-c1ccsc1)CO2

>  <EC50>
< 100 nM

$$$$
>  <COMPOUND>
COc1cc2c(cc1-c1cc[nH]n1)-c1c(c(C(=O)N(C)C(C)(C)C)nn1-c1ccsc1)CO2

>  <EC50>
< 100 nM

$$$$

In: Using the record for COc1cc2c(cc1C(O)C(C)C)-c1c(c(C(=O)N3CCOCC3(C)C)nn1-c1ccsc1)CO2 (stereo not shown) , state its measured EC50.
Out: < 100 nM

In: Using the record for COc1cc2c(cc1-c1c(C)n[nH]c1C)-c1c(c(C(=O)N3CCOCC3(C)C)nn1-c1ccsc1)CO2 , state its measured EC50.
Out: < 100 nM

In: Using the record for COc1cc2c(cc1-c1ccn(C)n1)-c1c(c(C(=O)NC3CC(O)C3)nn1-c1ccsc1)CO2 (stereo not shown) , state its measured EC50.
Out: 1000 to 5000 nM

Data provenance: patent US11365199B2
